Listed next: entries and their corresponding Top.
- study-system: T1, human CD73 ecto-domain recombinant protein (huCD73) (human, UniProt P21589 27-547)
- T1 construct: also called soluble huCD73; soluble recombinant CD73
- T1 sequence: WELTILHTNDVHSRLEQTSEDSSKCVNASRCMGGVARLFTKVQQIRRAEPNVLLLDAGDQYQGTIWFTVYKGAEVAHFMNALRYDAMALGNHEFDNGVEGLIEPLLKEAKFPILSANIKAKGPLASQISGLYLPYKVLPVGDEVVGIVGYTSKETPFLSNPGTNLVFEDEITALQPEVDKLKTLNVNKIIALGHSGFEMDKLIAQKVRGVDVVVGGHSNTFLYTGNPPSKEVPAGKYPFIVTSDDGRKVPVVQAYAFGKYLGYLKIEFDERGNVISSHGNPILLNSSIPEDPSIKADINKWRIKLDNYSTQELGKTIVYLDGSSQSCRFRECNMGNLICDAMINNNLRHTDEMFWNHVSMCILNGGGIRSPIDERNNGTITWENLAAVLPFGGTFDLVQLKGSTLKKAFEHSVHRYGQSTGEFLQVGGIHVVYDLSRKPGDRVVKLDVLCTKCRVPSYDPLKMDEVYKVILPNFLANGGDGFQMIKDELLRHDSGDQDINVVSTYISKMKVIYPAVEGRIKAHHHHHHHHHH
- assay-procedure: indirect ELISA, coated huCD73 recombinant protein, curve fit

# binder, Top
rows = [
    ("JB24H3L3 (antibody, human IgG1, kappa, V domains shown, Humanized antibody of JB24Chi, human IgG1 / kappa) VH: QVQLVQSGAEVKKPGASVKMSCKASGYTFTDYNMHWVKQSHGKSLEWIGYIKPHNAGTTYNPKFEGRATLTVDTSASTAYMELRSLRSEDTAVYYCVRSDFLYWYFDVWGQGTTVTVSS VL: DIVMTQSPSSLSASVGDRVTITCTASSSVSSSYLHWYQQKPGSSPKLWIYSTSNLASGVPGRFSGSGSGTDYTLTISSLQPEDFATYYCHQYHRSPLTFGAGTKLEIKR", "7310 OD value"),
]

Exam item: // returns reported Top for input JB24H3L2 (antibody, human IgG1, kappa, V domains shown, Humanized antibody of JB24Chi, human IgG1 / kappa) VH: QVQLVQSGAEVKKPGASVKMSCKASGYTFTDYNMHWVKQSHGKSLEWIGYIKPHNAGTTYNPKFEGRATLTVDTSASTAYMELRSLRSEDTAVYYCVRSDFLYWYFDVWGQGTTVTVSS VL: DIQMTQSPSSLSASVGDRVTITCTASSSVSSSYLHWYQQKPGSAPKLWIYSTSNLASGVPSRFSGSGSGTDYTLTISSLQPEDFATYYCHQYHRSPLTFGAGTKLEIKR
Marked response: 7140 OD value

Exam item: // returns reported Top for input JB94H2L1 (antibody, human IgG1, kappa, V domains shown, Humanized antibody of the 94 clone, human IgG1 / kappa) VH: QVQLVQSGAEVKKPGASVKVSCKASGYTFTSYWMHWVRQRPGQGLEWMGYINPSSGYTKSNQKFKDRVTLTADTSTSTAYMELSSLRSEDTAVYYCGRWLLSAWFAYWGQGTLVTVSS VL: DIQMTQSPSSLSASVGDRVTITCKASQDINTYLSWFQQKPGKAPKSLIYRSNILVDGVPSRFSGSGSGQDFTLTISSLQPEDFAIYYCLQYDDFPYTFGQGTKLEIKR
Marked response: 7110 OD value
